test system: Hyperlipidemic Hamster; assay: In Vivo Assay of Hypolipidemic Agents Using the Hyperlipidemic Hamster; details: Mesocricetus auratus, po, 168 h, 50 mg/kg once daily oral, 7 days; percent change versus control, negative = lowering; read-out: % Reduction (in vivo) Cholest. Esters
Give condition met when the value for change in vivo at 50 mg/kg is at least -10%. Give condition not met when it is less.

Reference set (3 entries):
COc1ccc([C@@H]2[C@H](NC(=O)Cc3ccccc3)C(=O)N2c2ccccc2)cc1 (relative stereo) = condition met
CCC(=O)N[C@@H]1C(=O)N(c2ccccc2)[C@@H]1c1ccc(OC)cc1 (relative stereo) [Example 12A] = condition not met
COc1ccc(N2C(=O)[C@@H](CCCc3ccccc3)[C@@H]2C=Cc2ccccc2)cc1 (relative stereo) = condition met

Identify whether the reported change in vivo at 50 mg/kg of the following compound is -10% or greater: COc1ccc(N2C(=O)[C@H](CCCc3ccccc3)[C@H]2c2ccc(C(F)(F)F)cc2)cc1 (relative stereo)
condition met

Identify whether the reported change in vivo at 50 mg/kg of the following compound is -10% or greater: COc1ccc(N2C(=O)[C@H](CCCc3ccccc3)[C@@H]2c2ccc(S(N)(=O)=O)cc2)cc1 (relative stereo)
condition not met

Identify whether the reported change in vivo at 50 mg/kg of the following compound is -10% or greater: COc1ccc(N2C(=O)[C@@H](CCCc3ccccc3)[C@H]2c2ccc(C=O)cc2)cc1 (relative stereo)
condition not met
